experiment: Bioavailability in fed Beagle dogs at a dose of 500 mg/kg; assay type: ADME, organism-based, Canis lupus familiaris; conditions: dog, in vivo
Reported metric: bioavailability (%)

INSERT INTO assay_data (compound, assay_value) VALUES
  ('C[C@@H]1CC[C@@]2(OC1)O[C@H]1C[C@H]3[C@@H]4CC[C@H]5C[C@@H](O[C@@H]6O[C@H](CO)[C@@H](O[C@@H]7O[C@H](CO)[C@@H](O)[C@H](O)[C@H]7O)[C@H](O)[C@H]6O)CC[C@]5(C)[C@H]4C(=O)C[C@]3(C)[C@H]1[C@@H]2C [PAMAQUESIDE]', 0.04);
